B1: ZNF8 (parent)
chain: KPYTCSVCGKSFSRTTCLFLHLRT

# Variants of: B1
# assay overview: protein stability index of a GFP-peptide fusion (GPS, HEK-293T) (PSI 1-6); higher = more stable;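 further: lentivirally expressed fusions sorted by FACS into six bins by GFP to DsRed ratio, PSI derived from sequencing read proportions per bin multiplied by bin number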
# condition description: c terminus: a fixed tail appended
attribute measured: protein stability index
Simply state the number, no unit and no words.

- residues: "KPYTCSVCGKSFRRTTCLFLHLRT [S13R]"
  protein stability index: 2

Task item: I'd like to know its protein stability index. The variant in question is KPCTCSVCGKSFSRTTCLFLHLRT [Y3C]
Reply: 1.7
